- System: SF-539 CNS
- experiment-summary: NCI-60 one-dose screen, 48 h (100 = growth as untreated, 0 = no growth, -100 = all killed)
- protocol-conditions: 10 µM unless noted
The panel holds about 83,000 compounds, 20% with a hit somewhere; the sample as a whole holds those more often.
measured-parameter: growth (%)
The reply should contain only the number, in %.

Would you please look over these solved cases?
O=C1/C(=C/c2ccc([N+](=O)[O-])o2)Oc2ccc(Cl)cc21 = -25.6
Cc1cc(C)c2c(c1)N1OC(C2)C[C@H]1/C=C/c1ccccc1 (some centres not stated) = 111
Cc1cc(=O)n2n1-c1ccc(Cl)cc1NC(=O)C2 = 99
COc1ccc2c(c1)nc(N)c1c3cc(OC)c(OC)cc3cn21 = 78.6

Please find the next compound below.
Exercise: Query: growth; subject: `O=C1c2ccccc2C(=O)c2c1cccc2-n1nnc2ccccc21`
Solution: 112

###

Items are presented alongside their recorded growth.
- Test system: MALME-3M melanoma
- experiment-summary: NCI-60 one-dose screen, 48 h (100 = growth as untreated, 0 = no growth, -100 = all killed)
- protocol-conditions: 10 µM unless noted
- Protocol: Cells are grown in 96 well plates and exposed to the test compound for 48 hours. Compounds are tested at a single concentration, which is 10^-5 M for most compounds. The reported endpoint is percent growth (GI% or GIPRCNT), where numbers from 0 - 100% represent growth inhibition, and numbers from -100% - 0 represent cell death. For example, a value of 40 represents 60% growth inhibition. A value of 0 means no net growth occurred over the course of the experiment. […]
About 83,000 compounds went through this panel and 20% of them were active in at least one assay; those are over-represented in the sample as a whole.
The reply should contain only the number, in %.

Would you please look over these solved cases?
c1csc([C@@H]2C[C@@H]3Cc4ccc5ccccc5c4N2O3)c1 = 86.4
CN1C(=O)/C(=C/c2nc(-c3cccc(F)c3)n3ccccc23)c2ccccc21 = 57.6
C[C@]12C[C@H](O)[C@H]3[C@@H](CCC4=CC(=O)CC[C@@]43C)[C@@H]1CC[C@@H]2C(=O)CO = 95.3

Please find the next molecule below.
Exercise: Query: growth; subject: `O=[P@@]1(c2ccccc2)O[C@H](COCc2ccccc2)[C@@H](OCc2ccccc2)[C@H](OCc2ccccc2)[C@H]1NCc1ccccc1`
Solution: -7.61

###

- System: UACC-62 melanoma
- experiment-summary: NCI-60 one-dose screen, 48 h
- protocol-conditions: 10 µM unless noted
About 83,000 compounds went through this panel and 20% of them were active in at least one assay; those are over-represented in the sample as a whole. Activity calls are given as the source filed them. How the source made its calls: active means growth percent below 10; inactive means the rest.
I would appreciate it if you answered using one of these outcomes: y (active), n (inactive)

Answered cases to consult:
CC(c1cc(Cl)ccc1O)c1cc(Cl)ccc1O = n
CC(=O)Oc1c(C)c(OC(C)=O)c2c(c1C(C)=O)OC1CC(=O)C(C(C)=O)=C(O)C21C (configuration not stated) = n

Exercise: Please share the test call associated with `Cc1c(C(N)=O)sc2ncn(CC(=O)Nc3ccc(Cl)cc3)c(=O)c12` .
Solution: n

Exercise: Please share the test call associated with `Fc1ccc(-c2nnc(-c3c(-c4ccc(F)cc4)nc4ncccn34)o2)cc1` .
Solution: n

Exercise: Please share the test call associated with `COc1ccc(-c2c3c(nn2-c2ccc(N)cc2)CCc2cnoc2-3)cc1OC` .
Solution: n

Exercise: Please share the test call associated with `c1ccc(-c2nnc(Nc3nnc(-c4ccccc4)s3)s2)cc1` .
Solution: n

###

- Tested on: BT-549 breast
- experiment-summary: NCI-60 one-dose screen, 48 h (100 = growth as untreated, 0 = no growth, -100 = all killed)
- protocol-conditions: 10 µM unless noted
Compounds without any hit were thinned out: in the full panel of roughly 83,000, 20% have a hit.
Items are presented alongside their recorded growth.
The reply should contain only the number, in %.

Nc1ccc(S(=O)(=O)Nc2ncccn2)cc1 = 119
CC(C)C/C(=N\NC(=O)c1ccncc1)c1cc(Cl)ccc1O = -1.24
N=c1ccn2c(n1)O[C@@H]1[C@@H](O)[C@H](CO)O[C@@H]12 = 83.5
N#Cc1c(N)[nH]c(S)c1C#N = 99.4
Cn1cc(-c2csc(-c3cn(C)c4ncccc34)n2)c2cc(F)cnc21 = 85.7

Exercise: Query: growth; subject: `COc1c(O)cc2oc3cc(O)c(CC=C(C)C)c(O)c3c(=O)c2c1C/C=C(\C)CCC=C(C)C`
Solution: 99.3

Exercise: Query: growth; subject: ClC1C2CC(c3ccccc32)C1Cl (configuration not stated)
Solution: 102

Exercise: Query: growth; subject: `C=CCCCCCCCCC(=O)[O][Sn]([CH2]CCC)([CH2]CCC)[CH2]CCC`
Solution: -99.2

Exercise: Query: growth; subject: C=C1c2c(C)nn(-c3ccc(C#CCOC4OC(CO)C(O)C(O)C4O)cc3)c2N(C)C23C[C@H]1C1(C)c4c(C)nn(-c5ccc(C#CCOC6OC(CO)C(O)C(O)C6O)cc5)c4N(C)C(C)(C[C@H]12)C3 (some centres not stated)
Solution: 3.47

Exercise: Query: growth; subject: `CCC[C@H](N[C@@H](C)C(=O)N1[C@H](C(=O)O)C[C@@H]2CCCC[C@@H]21)C(=O)OCC`
Solution: 113

Exercise: Query: growth; subject: `C/C(=N/N=C(N)N)c1ccc(Cl)cc1`
Solution: -0.709

Exercise: Query: growth; subject: `COc1cc(/C=C/c2nnc(-c3cc(-c4ccccc4)n[nH]3)o2)cc(OC)c1OC`
Solution: 112

Exercise: Query: growth; subject: `CC[C@H](C)C(=O)O[C@H]1C[C@@H](C)C=C2C=C[C@H](C)[C@H](CC[C@@H]3C[C@@H](O)CC(=O)O3)[C@H]21`
Solution: 82.4

Exercise: Query: growth; subject: `Cn1c(=O)c2nc(SCc3ccccc3)n(C)c2n(C)c1=O`
Solution: 107

Exercise: Query: growth; subject: `COc1ccc(/C=C2\NC(=S)NC2=O)cc1`
Solution: 105

Exercise: Query: growth; subject: `c1cnc2n[nH]c(Nc3ncnc4c3sc3ncccc34)c2c1`
Solution: 106

Exercise: Query: growth; subject: `COc1cc(NC(=O)c2cc3ccccc3cc2O)c(OC)cc1Cl`
Solution: -24.3

Exercise: Query: growth; subject: `COc1cc(/C=C/C(=O)Nc2cccnc2Nc2cc(OC)c(OC)c(OC)c2)cc(OC)c1OC`
Solution: 96.7

Exercise: Query: growth; subject: `CCN(CC)c1ccc(CN(CC(=O)c2ccc(Cl)c(Cl)c2)Cc2ccccc2)cc1`
Solution: 109

Exercise: Query: growth; subject: `CC1(C)OC(=O)C(=Cc2ccccc2Br)C(=O)O1`
Solution: 107

Exercise: Query: growth; subject: `Cc1cc(C(=O)O)c(C)cc1C(=O)O`
Solution: 103

Exercise: Query: growth; subject: `COc1cc(/C=C/C(=O)c2c(-c3ccc(F)cc3)nc3sc(C)nn23)cc(OC)c1OC`
Solution: 12

Exercise: Query: growth; subject: `COc1cccc(/C=C2\COc3ccc(O)c(O)c3C2=O)c1OC`
Solution: 35.3

Exercise: Query: growth; subject: O=C(C(Br)Br)C(Br)C(Br)c1ccccc1 (configuration not stated)
Solution: 95.8

Exercise: Query: growth; subject: `O=C(c1ccccc1)c1ccccc1Cl`
Solution: 85.8

Exercise: Query: growth; subject: COc1ccc(C2=NN(C(=O)c3cc(OC)c(OC)c(OC)c3)C(c3ccc(C#N)cc3)C2)cc1OC (configuration not stated)
Solution: 28.6

Exercise: Query: growth; subject: `O=C(/C(=C/c1cccc([N+](=O)[O-])c1)c1ccccc1)c1ccccc1`
Solution: 33.1

Exercise: Query: growth; subject: `COc1ccc(Cn2c(NCCCN(C)C)nc(=O)n(Cc3ccc(F)cc3)c2=O)cc1`
Solution: 92.5

###

- Tested on: DU-145 prostate
- experiment-summary: NCI-60 one-dose screen, 48 h
- protocol-conditions: 10 µM unless noted
This is part of a sample that, as a whole, favours compounds with a hit. Of some 83,000 tested, about 20% had one in any assay. Calls of active or inactive are those of the source. The calls were made as follows: active = growth percent below 10; inactive = the rest.
I would appreciate it if you answered using one of these outcomes: active, inactive

Answered cases to consult:
O=C(NN(C(=O)c1ccccc1)c1cccs1)c1ccccc1 = inactive
Cc1c(NCc2nnc3n(Cc4ccccc4)c(=O)c4c5c(sc4n23)CCCC5)c(=O)n(-c2ccccc2)n1C = inactive
O=C(/C(=C/c1ccc([N+](=O)[O-])cc1)c1ccccc1)c1ccccc1 = inactive

Exercise: Please share the test call associated with `C/C(=N/N=C(N)N)c1ccc(Cl)cc1` .
Solution: inactive

Exercise: Please share the test call associated with CC(=O)Oc1ccc(C23c4ccccc4C2(OC(C)=O)c2cc(OC(C)=O)ccc23)cc1 (stereo not given) .
Solution: inactive
